This listing pairs compounds with measured pIC50.
tested.target: Falcilysin (Plasmodium falciparum (isolate 3D7))
Sequence (Q76NL8 whole entry): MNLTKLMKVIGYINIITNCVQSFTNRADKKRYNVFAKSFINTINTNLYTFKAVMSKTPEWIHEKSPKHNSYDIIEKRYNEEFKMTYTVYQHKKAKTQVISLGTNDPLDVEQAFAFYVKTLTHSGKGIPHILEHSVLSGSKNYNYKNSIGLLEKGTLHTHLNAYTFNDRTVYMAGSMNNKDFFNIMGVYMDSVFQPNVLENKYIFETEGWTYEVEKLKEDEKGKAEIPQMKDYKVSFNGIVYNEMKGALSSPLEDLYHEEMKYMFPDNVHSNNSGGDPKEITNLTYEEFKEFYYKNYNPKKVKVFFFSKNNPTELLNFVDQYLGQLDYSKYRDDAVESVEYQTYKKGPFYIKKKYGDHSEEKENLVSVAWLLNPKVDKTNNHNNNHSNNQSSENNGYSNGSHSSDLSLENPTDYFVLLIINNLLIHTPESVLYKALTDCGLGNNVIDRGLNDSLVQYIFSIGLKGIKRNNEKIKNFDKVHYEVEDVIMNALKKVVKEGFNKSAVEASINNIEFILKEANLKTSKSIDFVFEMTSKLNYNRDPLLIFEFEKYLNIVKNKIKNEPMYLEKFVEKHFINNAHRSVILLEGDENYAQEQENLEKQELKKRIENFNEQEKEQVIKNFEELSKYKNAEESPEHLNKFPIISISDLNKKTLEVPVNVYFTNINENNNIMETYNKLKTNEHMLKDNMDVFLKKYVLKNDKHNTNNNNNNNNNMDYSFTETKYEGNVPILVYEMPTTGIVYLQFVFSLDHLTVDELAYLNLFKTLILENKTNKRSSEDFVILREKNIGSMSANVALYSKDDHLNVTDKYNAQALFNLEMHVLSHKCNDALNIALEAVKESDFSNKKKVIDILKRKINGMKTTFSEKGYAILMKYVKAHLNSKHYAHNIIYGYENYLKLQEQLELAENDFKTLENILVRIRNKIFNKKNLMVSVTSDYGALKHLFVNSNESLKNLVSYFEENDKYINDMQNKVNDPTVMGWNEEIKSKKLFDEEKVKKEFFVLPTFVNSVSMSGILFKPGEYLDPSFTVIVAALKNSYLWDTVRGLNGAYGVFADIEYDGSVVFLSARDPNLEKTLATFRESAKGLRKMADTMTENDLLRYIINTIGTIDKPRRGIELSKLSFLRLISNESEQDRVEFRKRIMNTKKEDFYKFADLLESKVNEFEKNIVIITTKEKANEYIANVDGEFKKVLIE
assay.procedure: Inhibition of Plasmodium falciparum 3D7 FLN (55 to 1193 residues) expressed in Escherichia coli BL21 using Dabcyl-HKRHSFRMRG-EDANS as substrate preincubated for 5 mins followed by substrate addition measured for 10 mins by fluorescence assay
// pIC50 here means minus log10 of the molar concentration (mol/L)

                                   compound  outcome_measure   val
0  O=C(NO)C1CN(C(=O)c2ccccc2Br)CCN1S(=O)(=O)c1ccccc1 (stereo not given)            pIC50  5.15
1  O=C(NO)C1CN(C(=O)c2ccc(Cl)c(Cl)c2)CCN1S(=O)(=O)c1ccccc1 (stereo not given)            pIC50  5.30

Turning to the following compound.
### Prompt Specify measured pIC50 for COc1ccc(S(=O)(=O)N2CCN(C(=O)c3ccc(Cl)c(Cl)c3)CC2C(=O)NO)cc1 (stereo not given) .
### Response 5.22

* * *

tested.target: Falcilysin (Plasmodium falciparum (isolate 3D7))
Sequence (Q76NL8 whole entry): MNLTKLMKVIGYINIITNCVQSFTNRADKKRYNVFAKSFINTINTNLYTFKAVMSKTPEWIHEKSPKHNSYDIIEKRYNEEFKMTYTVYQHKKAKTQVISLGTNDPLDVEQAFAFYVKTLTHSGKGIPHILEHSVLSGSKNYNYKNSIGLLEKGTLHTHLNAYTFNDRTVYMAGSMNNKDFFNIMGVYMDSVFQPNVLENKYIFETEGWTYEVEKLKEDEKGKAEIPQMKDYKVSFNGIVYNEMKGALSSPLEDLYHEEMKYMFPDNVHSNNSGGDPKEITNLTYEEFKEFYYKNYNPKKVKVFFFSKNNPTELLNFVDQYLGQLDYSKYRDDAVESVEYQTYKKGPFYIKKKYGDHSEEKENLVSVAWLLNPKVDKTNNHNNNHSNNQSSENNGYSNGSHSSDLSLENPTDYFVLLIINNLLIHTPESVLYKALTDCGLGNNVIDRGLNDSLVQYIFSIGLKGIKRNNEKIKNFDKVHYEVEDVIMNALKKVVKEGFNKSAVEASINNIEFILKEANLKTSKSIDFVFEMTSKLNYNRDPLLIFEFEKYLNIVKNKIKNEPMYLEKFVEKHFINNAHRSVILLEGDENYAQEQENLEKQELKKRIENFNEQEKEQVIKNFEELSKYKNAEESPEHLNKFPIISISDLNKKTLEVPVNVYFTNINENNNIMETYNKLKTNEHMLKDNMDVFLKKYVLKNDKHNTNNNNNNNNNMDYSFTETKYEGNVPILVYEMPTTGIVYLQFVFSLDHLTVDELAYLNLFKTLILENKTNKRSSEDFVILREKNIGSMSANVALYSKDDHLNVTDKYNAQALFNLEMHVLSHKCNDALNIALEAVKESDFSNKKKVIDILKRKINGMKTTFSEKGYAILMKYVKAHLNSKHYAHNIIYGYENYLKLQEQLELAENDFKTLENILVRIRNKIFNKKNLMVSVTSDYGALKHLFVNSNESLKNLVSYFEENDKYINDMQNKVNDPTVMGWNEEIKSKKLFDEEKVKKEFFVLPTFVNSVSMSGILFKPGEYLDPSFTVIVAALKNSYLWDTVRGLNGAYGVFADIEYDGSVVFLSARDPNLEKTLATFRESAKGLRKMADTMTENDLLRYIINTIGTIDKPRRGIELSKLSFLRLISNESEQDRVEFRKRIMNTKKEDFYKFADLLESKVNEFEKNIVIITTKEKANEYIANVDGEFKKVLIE
assay.procedure: Inhibition of Plasmodium falciparum 3D7 FLN (55 to 1193 residues) expressed in Escherichia coli BL21 using Dabcyl-HKRHSFRMRG-EDANS as substrate preincubated for 5 mins followed by substrate addition measured for 10 mins by fluorescence assay
This listing pairs compounds with measured IC50.
Dear colleague, please return just the value in µM, with no unit written.

>>> print(df.to_string())
                                   compound  val
0  O=C(NO)C1CN(C(=O)c2ccc(F)cc2)CCN1S(=O)(=O)c1ccc(Br)cc1 (configuration not stated)   16
1  O=C(NO)C1CN(C(=O)c2ccccc2)CCN1S(=O)(=O)c1ccc(Br)cc1 (configuration not stated)   35

Turning to the following compound.
### Prompt Specify measured IC50 for O=C(NO)C1CN(C(=O)c2ccc(-c3ccccc3)cc2)CCN1S(=O)(=O)c1ccccc1 (configuration not stated) .
### Response 8

* * *

tested.target: Falcilysin (Plasmodium falciparum (isolate 3D7))
assay.procedure: Inhibition of Plasmodium falciparum 3D7 FLN (55 to 1193 residues) expressed in Escherichia coli BL21 using Dabcyl-HKRHSFRMRG-EDANS as substrate preincubated for 5 mins followed by substrate addition measured for 10 mins by fluorescence assay
Mark each entry TRUE if its IC50 sits below 10 µM, and FALSE for all others.

Use the examples below as a reference point.
In [3]: df
Out[3]:
                                   molecule  class_label
0  O=C(NO)C1CN(CCCO)CCN1S(=O)(=O)c1ccccc1 (centres undefined)        FALSE
1  O=C(NO)C1CN(C(=O)c2ccc(-c3ccccc3)cc2)CCN1S(=O)(=O)c1ccc(Br)cc1 (centres undefined)         TRUE
2  O=C(NO)C1CN(C(=O)c2ccccc2)CCN1S(=O)(=O)c1ccccc1 (centres undefined)        FALSE

### Prompt Is IC50 of O=C(NO)C1CN(C(=O)c2cccc(F)c2)CCN1S(=O)(=O)c1ccc(Br)cc1 (centres undefined) strictly below 10 µM?
### Response FALSE

### Prompt Is IC50 of O=C(NO)C1CN(C(=O)c2ccc(Br)cc2)CCN1S(=O)(=O)c1ccccc1 (centres undefined) strictly below 10 µM?
### Response FALSE

### Prompt Is IC50 of COc1ccc(S(=O)(=O)N2CCN(C(=O)c3ccc(Br)cc3)CC2C(=O)NO)cc1 (centres undefined) strictly below 10 µM?
### Response FALSE

### Prompt Is IC50 of COc1ccc(S(=O)(=O)N2CCN(C(=O)c3ccccc3Br)CC2C(=O)NO)cc1 (centres undefined) strictly below 10 µM?
### Response TRUE

Cited source: ChEMBL document CHEMBL4219245
